Cited source for all entries: patent US20090118332A1

Reported inhibition at 100 µM values are given for each entry in this list.
Target: human Fatty Acid Synthase (Homo sapiens, UniProt P49327)
Construct: made in house
Sequence (P49327 whole entry): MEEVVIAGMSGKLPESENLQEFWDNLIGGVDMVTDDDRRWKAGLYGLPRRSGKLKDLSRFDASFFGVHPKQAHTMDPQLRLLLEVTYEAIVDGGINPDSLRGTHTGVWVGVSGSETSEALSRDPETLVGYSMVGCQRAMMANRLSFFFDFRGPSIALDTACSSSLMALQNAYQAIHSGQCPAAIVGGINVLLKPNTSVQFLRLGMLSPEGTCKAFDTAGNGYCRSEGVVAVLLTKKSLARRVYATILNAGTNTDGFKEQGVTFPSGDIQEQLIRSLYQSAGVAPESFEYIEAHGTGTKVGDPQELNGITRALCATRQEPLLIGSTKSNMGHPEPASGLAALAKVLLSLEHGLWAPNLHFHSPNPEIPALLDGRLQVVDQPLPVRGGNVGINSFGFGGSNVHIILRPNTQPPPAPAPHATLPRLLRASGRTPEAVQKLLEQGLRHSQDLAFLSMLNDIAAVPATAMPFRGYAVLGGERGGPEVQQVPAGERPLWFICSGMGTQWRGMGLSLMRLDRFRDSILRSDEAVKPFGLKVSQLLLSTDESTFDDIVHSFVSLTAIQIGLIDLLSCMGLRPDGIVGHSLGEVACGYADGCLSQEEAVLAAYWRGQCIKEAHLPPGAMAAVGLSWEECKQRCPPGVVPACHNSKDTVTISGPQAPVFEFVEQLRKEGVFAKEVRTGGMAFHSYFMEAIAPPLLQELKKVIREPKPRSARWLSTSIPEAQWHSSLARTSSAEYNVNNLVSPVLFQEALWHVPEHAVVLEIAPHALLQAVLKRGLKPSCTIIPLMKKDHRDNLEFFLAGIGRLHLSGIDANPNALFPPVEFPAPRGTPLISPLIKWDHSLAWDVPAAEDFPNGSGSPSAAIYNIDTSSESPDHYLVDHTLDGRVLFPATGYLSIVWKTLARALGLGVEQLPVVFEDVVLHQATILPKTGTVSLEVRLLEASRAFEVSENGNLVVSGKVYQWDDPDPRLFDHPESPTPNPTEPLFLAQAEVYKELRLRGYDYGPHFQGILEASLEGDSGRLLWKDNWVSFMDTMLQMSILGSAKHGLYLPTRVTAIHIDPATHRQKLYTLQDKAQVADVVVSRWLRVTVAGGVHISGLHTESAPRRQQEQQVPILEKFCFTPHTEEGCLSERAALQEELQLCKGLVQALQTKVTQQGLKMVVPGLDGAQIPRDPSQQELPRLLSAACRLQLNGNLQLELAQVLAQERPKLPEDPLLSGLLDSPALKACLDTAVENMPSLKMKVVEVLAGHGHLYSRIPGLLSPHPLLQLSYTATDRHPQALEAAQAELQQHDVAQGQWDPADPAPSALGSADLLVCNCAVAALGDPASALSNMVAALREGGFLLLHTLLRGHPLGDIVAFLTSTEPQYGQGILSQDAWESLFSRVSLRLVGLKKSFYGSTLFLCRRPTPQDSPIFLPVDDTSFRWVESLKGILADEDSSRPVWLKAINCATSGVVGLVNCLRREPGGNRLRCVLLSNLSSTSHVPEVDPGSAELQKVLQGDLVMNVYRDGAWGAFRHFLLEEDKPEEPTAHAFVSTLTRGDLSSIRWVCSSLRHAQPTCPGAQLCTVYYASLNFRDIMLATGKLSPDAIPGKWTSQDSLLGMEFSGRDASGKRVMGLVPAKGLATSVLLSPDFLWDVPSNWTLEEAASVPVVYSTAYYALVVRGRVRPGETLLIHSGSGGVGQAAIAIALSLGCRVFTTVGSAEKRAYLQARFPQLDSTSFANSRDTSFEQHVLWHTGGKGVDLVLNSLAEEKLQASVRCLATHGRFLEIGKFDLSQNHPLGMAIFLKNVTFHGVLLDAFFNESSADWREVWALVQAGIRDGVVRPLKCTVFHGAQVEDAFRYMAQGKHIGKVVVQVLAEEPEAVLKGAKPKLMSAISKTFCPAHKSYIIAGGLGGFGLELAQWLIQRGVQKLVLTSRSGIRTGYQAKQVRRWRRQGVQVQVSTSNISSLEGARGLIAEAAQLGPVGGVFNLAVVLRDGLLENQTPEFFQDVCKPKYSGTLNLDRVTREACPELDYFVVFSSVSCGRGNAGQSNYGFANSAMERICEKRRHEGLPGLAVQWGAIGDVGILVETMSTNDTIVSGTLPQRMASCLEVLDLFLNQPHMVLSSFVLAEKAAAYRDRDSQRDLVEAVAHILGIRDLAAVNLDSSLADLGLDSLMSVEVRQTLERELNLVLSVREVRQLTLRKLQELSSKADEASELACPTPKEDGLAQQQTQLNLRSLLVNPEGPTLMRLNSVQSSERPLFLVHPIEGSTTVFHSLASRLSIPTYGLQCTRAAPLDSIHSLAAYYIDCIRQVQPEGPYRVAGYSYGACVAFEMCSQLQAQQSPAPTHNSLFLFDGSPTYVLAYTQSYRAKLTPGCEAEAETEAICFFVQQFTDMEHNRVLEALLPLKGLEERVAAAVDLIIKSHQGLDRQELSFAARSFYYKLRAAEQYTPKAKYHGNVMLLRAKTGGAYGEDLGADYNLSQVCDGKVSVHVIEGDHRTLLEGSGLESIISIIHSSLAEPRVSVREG
Assay: Human FAS enzyme assay (decrease in NADPH fluorescence)
Assay type: biochemical
Conditions: % inhibition at a concentration of 100 μmolar

- molecule_smiles: "Cc1ccc(NC(=O)N[C@@H](C)c2ccccc2)cc1C(=O)N1CCC(c2ccc(C#N)cc2)CC1"
  value_unit: "%"
  inhibition at 100 µM: 76.6
- molecule_smiles: "CNCCNC(=O)Nc1cc(C(=O)N2CCC(c3ccc(F)cc3)CC2)ccc1C"
  value_unit: "%"
  inhibition at 100 µM: 66.7
- molecule_smiles: "CCC(CC)NC(=O)Nc1cc(C(=O)N2CCC(c3ccc(C#N)cc3)CC2)ccc1C"
  value_unit: "%"
  inhibition at 100 µM: 90.8
- molecule_smiles: "Cc1cccc(CNC(=O)Nc2cc(C(=O)N3CCC(c4ccc(C#N)cc4)CC3)ccc2C)c1"
  value_unit: "%"
  inhibition at 100 µM: 92.2

* * *

Target: human Fatty Acid Synthase (Homo sapiens, UniProt P49327)
Construct: made in house
Experiment: Human FAS enzyme assay (decrease in NADPH fluorescence)
Format: biochemical
Settings: % inhibition at a concentration of 100 μmolar
Overview of recorded inhibition at 100 µM for various compounds

- compound: "Cc1ccc(C(=O)N2CCC(c3ccc(C#N)cc3)CC2)cc1NC(=O)NCc1ncccn1 [Example 291]"
  value_unit: "%"
  inhibition at 100 µM: 89.6
- compound: "Cc1ccc(C(=O)N2CCC(c3ccc(C#N)cc3)CC2)cc1NC(=O)NCCC(=O)Nc1cnoc1C [Example 241]"
  value_unit: "%"
  inhibition at 100 µM: 92.4
- compound: "Cc1ccc(C(=O)N2CCC(c3ccc(C#N)cc3)CC2)cc1NC(=O)NCCC(=O)N(CCO)CCO [Example 242]"
  value_unit: "%"
  inhibition at 100 µM: 90.6
- compound: "Cc1ccc(C(=O)N2CCC(c3ccc(C#N)cc3)CC2)cc1NC(=O)NCC1CCS(=O)(=O)C1 (stereo not shown) [Example 80]"
  value_unit: "%"
  inhibition at 100 µM: 96.1

* * *

inhibition at 100 µM reference
Biological target: human Fatty Acid Synthase (Homo sapiens, UniProt P49327)
Construct: made in house
Assay: Human FAS enzyme assay (decrease in NADPH fluorescence)
Assay type: biochemical
Settings: % inhibition at a concentration of 100 μmolar

- molecule: "Cc1ccc(C(=O)N2CCC(c3ccc(C#N)cc3)CC2)cc1NC(=O)N[C@@H](CO)C(N)=O [Example 192]"
  inhibition at 100 µM: "85.1%"
- molecule: "Cc1ccc(C(=O)N2CCC(c3ccc(S(C)(=O)=O)cc3)CC2)cc1NC(=O)NC(C)C [Example 374]"
  inhibition at 100 µM: "71.8%"
- molecule: "Cc1ccc(C(=O)N2CCC(c3ccc(C#N)cc3)CC2)cc1NC(=O)N1CC(N)C1 [Example 306]"
  inhibition at 100 µM: "84.7%"
- molecule: "Cc1ccc(C(=O)N2CCC(c3ccc(C#N)cc3)CC2)cc1NC(=O)NCC1COc2ccccc2O1 (stereo not shown) [Example 165]"
  inhibition at 100 µM: "92.4%"
- molecule: "Cc1ccc(C(=O)N2CCC(c3ccc(C#N)cc3)CC2)cc1NC(=O)NC(C)C [Example 3]"
  inhibition at 100 µM: "95.6%"
- molecule: "Cc1ccc(C(=O)N2CCC(c3ccc(C#N)cc3)CC2)cc1NC(=O)NC1CCCC[C@@H]1C(N)=O (stereo partly shown) [Example 134]"
  inhibition at 100 µM: "84.6%"
- molecule: "Cc1ccc(C(=O)N2CCC(c3ccc(C#N)cc3)CC2)cc1NC(=O)NCCNC(=O)CC(=O)N(C)C [Example 231]"
  inhibition at 100 µM: "90.3%"
- molecule: "Cc1ccc(NC(=O)NCC2CCOCC2)cc1C(=O)N1CCC(c2ccc(C#N)cc2)CC1 [Example 27]"
  inhibition at 100 µM: "80.7%"
- molecule: "CCc1ccc(C(=O)N2CCC(c3ccc(C#N)cc3)CC2)cc1NC(=O)NC1COC1 [Example 298]"
  inhibition at 100 µM: "95.8%"
- molecule: "Cc1ccc(C(=O)N2CCC(c3ccc(C#N)cc3)CC2)cc1NC(=O)NCC(C)C [Example 42]"
  inhibition at 100 µM: "83.8%"
- molecule: "Cc1ccc(C(=O)N2CCC(c3ccc(C#N)cc3)CC2)cc1NC(=O)NCCNS(=O)(=O)C(C)C [Example 122]"
  inhibition at 100 µM: "96.1%"
- molecule: "Cc1ccc(C(=O)N2CCC(c3ccc(C#N)cc3)CC2)cc1NC(=O)NCc1ccncn1 [Example 266]"
  inhibition at 100 µM: "103%"
- molecule: "Cc1ccc(C(=O)N2CCC(c3ccc(C#N)cc3)CC2)cc1NC(=O)N[C@H]1CC[C@H](NS(=O)(=O)N(C)C)C1 [Example 323]"
  inhibition at 100 µM: "94%"
- molecule: "Cc1ccc(C(=O)N2CCC(c3ccc(C#N)cc3)CC2)cc1NC(=O)N[C@@H]1CCCC[C@H]1N (relative stereo) [Example 305]"
  inhibition at 100 µM: "78.8%"
- molecule: "COC(C)(C)CNC(=O)Nc1cc(C(=O)N2CCC(c3ccc(C#N)cc3)CC2)ccc1C [Example 159]"
  inhibition at 100 µM: "88%"
- molecule: "COCCCCNC(=O)Nc1cc(C(=O)N2CCC(c3ccc(C#N)cc3)CC2)ccc1C [Example 252]"
  inhibition at 100 µM: "99.4%"
- molecule: "Cc1ccc(C(=O)N2CCC(c3ccc(C#N)cc3)CC2)cc1NC(=O)NC12CC3CC(CC(O)(C3)C1)C2 [Example 197]"
  inhibition at 100 µM: "84.4%"
- molecule: "Cc1ccc(C(=O)N2CCC(c3ccc(C#N)cc3)CC2)cc1NC(=O)NCCc1cccnc1 [Example 66]"
  inhibition at 100 µM: "91.5%"
- molecule: "Cc1ccc(C(=O)N2CCC(c3ccc(C#N)cc3)CC2)cc1NC(=O)NC1CCCC1C(=O)O (stereo not shown) [Example 388]"
  inhibition at 100 µM: "83.9%"
- molecule: "Cc1ccc(C(=O)N2CCC(c3ccc(C#N)cc3)CC2)cc1NC(=O)NC1CN(S(C)(=O)=O)C1 [Example 302]"
  inhibition at 100 µM: "93.9%"
- molecule: "Cc1ccc(C(=O)N2CCC(c3ccc(C#N)cc3)CC2)cc1NC(=O)NCCc1c(C)noc1C [Example 67]"
  inhibition at 100 µM: "96.9%"
- molecule: "CCCN(C(=O)Nc1cc(C(=O)N2CCC(c3ccc(C#N)cc3)CC2)ccc1C)C1CCS(=O)(=O)C1 (stereo not shown) [Example 397]"
  inhibition at 100 µM: "63.7%"
- molecule: "CC(=O)N1CCC(NC(=O)Nc2cc(C(=O)N3CCC(c4ccc(F)cc4)CC3)ccc2C)C1 (stereo not shown) [Example 348]"
  inhibition at 100 µM: "84.5%"
- molecule: "Cc1ccc(C(=O)N2CCC(c3ccc(C#N)cc3)CC2)cc1NC(=O)NCCN [Example 103]"
  inhibition at 100 µM: "91.8%"
- molecule: "Cc1ccc(C(=O)N2CCC(c3ccc(C#N)cc3)CC2)cc1NC(=O)N[C@H]1CC[C@H](O)CC1 [Example 193]"
  inhibition at 100 µM: "85.8%"
- molecule: "CC(=O)N(C)CCNC(=O)Nc1cc(C(=O)N2CCC(c3ccc(C#N)cc3)CC2)ccc1C [Example 120]"
  inhibition at 100 µM: "68.3%"
- molecule: "CC(C)NC(=O)Nc1cc(C(=O)N2CCC(c3ccc(C#N)cc3)CC2)ccc1CS(C)(=O)=O [Example 403]"
  inhibition at 100 µM: "79.9%"
- molecule: "CCC(C)NC(=O)Nc1cc(C(=O)N2CCC(c3ccc(C#N)cc3)CC2)ccc1C (stereo not shown) [Example 226]"
  inhibition at 100 µM: "84.2%"
- molecule: "Cc1ccc(C(=O)N2CCC(c3ccc(C#N)cc3)CC2)cc1NC(=O)NC1CCCN(C(=O)OC(C)(C)C)C1 (stereo not shown) [Example 279]"
  inhibition at 100 µM: "99.4%"
- molecule: "Cc1ccc(C(=O)N2CCC(c3ccc(C(=O)N(C)C)cc3)CC2)cc1NC(=O)NC(C)C [Example 124]"
  inhibition at 100 µM: "78%"
- molecule: "CCC(=O)N1CCCC(NC(=O)Nc2cc(C(=O)N3CCC(c4ccc(C#N)cc4)CC3)ccc2C)C1 (stereo not shown) [Example 295]"
  inhibition at 100 µM: "97.2%"
